- TARGET_OR_TEST_SYSTEM: T1, rat α-CGRP (1-37) (rat, C-terminal amide; N-terminal biotin when captured on the SA chip)
- T1 construct: also called rat α (1-37); α-rat
- T1 peptide: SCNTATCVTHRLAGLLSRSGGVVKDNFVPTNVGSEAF
- EXPERIMENTAL_PROTOCOL: Biacore, 37°C, Fab over CGRP on SA chip
MEASUREMENT_TYPE: Kd (nM)
The reply should be a number in nM, with the unit left off.

The cases that follow already have their Kd on record.
G1 variant M74 Fab (Fab, V domains shown, Fab; constant domains as m1) VH: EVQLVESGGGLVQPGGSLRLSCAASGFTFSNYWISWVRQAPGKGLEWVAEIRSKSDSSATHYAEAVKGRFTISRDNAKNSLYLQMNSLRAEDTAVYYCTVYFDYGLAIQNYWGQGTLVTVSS VL: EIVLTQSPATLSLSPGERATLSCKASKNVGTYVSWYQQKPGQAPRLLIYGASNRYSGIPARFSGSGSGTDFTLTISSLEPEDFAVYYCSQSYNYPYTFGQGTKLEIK :: 335
G1 variant M6 Fab (Fab, V domains shown, Fab; constant domains as m1) VH: EVQLVESGGGLVQPGGSLRLSCAASGFTFSNYWISWVRQAPGKGLEWVAEIRSESDASATHYAEAVKGRFTISRDNAKNSLYLQMNSLRAEDTAVYYCNAYFDYGLAIQNYWGQGTLVTVSS VL: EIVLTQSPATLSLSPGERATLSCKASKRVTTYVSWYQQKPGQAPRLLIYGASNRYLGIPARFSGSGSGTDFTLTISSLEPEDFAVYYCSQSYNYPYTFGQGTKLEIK :: 43.6
G1 variant M18 Fab (Fab, V domains shown, Fab; constant domains as m1) VH: EVQLVESGGGLVQPGGSLRLSCAASGFTFSNYWISWVRQAPGKGLEWVAEIRSESDASATHYAEAVKGRFTISRDNAKNSLYLQMNSLRAEDTAVYYCVGYFDYGLAIQNYWGQGTLVTVSS VL: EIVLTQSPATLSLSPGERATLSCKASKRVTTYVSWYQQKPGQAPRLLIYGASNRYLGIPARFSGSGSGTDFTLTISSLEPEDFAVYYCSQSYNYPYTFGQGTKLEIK :: 67.8
G1 variant M56 Fab (Fab, V domains shown, Fab; constant domains as m1) VH: EVQLVESGGGLVQPGGSLRLSCAASGFTFSNYWISWVRQAPGKGLEWVAEIRSKSDNSATFYAEAVKGRFTISRDNAKNSLYLQMNSLRAEDTAVYYCTVYFDYGLAIQNYWGQGTLVTVSS VL: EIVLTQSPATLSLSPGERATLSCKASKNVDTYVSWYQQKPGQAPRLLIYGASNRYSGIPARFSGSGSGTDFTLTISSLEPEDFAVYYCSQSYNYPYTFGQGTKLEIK :: 519

Now take the following binder into account.
Query string: State the recorded Kd for this entry: G1 variant M31 Fab (Fab, V domains shown, Fab; constant domains as m1) VH: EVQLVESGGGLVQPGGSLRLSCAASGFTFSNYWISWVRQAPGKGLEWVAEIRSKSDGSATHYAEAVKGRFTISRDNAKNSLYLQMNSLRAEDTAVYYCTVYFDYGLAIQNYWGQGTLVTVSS VL: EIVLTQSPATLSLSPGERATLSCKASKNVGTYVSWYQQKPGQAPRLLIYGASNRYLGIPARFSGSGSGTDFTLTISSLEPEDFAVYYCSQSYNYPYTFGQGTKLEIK
Result string: 201
